Measured IC50, listed per entry.
# Tested on: ALPK1-dependent NFκB reporter gene activation in HEK293 cells stably expressing an NF-kB reporter (G9 cells)
# Run Description: NFκB gene reporter alkaline phosphatase assay
# Type: cell-based
# Setup Conditions: Homo sapiens, HEK293; read-out: NFkB assay IC50
Express the result in nM but write the number alone.

Guide cases for IC50, answers given:
C#C[C@@](C)(c1ccc(Cl)cc1)c1csc(NC(=O)N2CCc3cc(N4CCNCC4)ccc3C2)n1	1080
C#C[C@@](C)(c1ccc(Cl)cc1)c1csc(NC(=O)NC[C@@H](O)CO)n1	660
C#C[C@](C)(c1ccc(Cl)cc1)c1csc(NC(=O)N2CC(c3ccc(N4CCNCC4)c(F)c3)C2)n1	1590
COc1ccc(C(C)(C)c2csc(NC(=O)NCCCCO)n2)cc1	530

IN: What measured IC50 goes with C#CC(C)(c1ccc(Cl)cc1)c1csc(NC(=O)N2CCC(O)C2)n1 (centres unmarked) ?
OUT: 1260

Cited source: patent US20240109853A1
